Tested on: beta-TC6 cells
Experiment: Insulin HTRF assay, relative activity Ar normalized to sunitinib
Type: cell-based
Conditions: Mus musculus, normalized to positive control sunitinib (5 µM = 100%), Table 10
For each of the compounds below, state its Emax.

Query block: Requested read-out Emax, target or system beta-TC6 cells, entry `CN(C)/C(=C1\N=C(c2ccccc2)OC1=O)c1cnc2cccnn12`
Result block: 10 to 20%

Query block: Same lookup for `CSc1ccc(-c2cn3c(-c4cccnc4)cnc3cn2)cc1` , please.
Result block: 20 to 50%

Query block: Ok, now `CCOc1cccc(-c2cnc3cccnn23)c1`
Result block: 10 to 20%

Query block: Also check `COc1ccc(-c2cnc3ccc(NCCCO)nn23)cc1`
Result block: 10 to 20%

Query block: Moving on to the next compound: `N#Cc1ccc(-c2cnc3cnc(-c4ccc(Cl)cc4)cn23)cc1`
Result block: 50 to 100%

Query block: Here is the next compound: `c1ccc(-c2ccc3ncc(-c4ccc5c(c4)OCO5)n3n2)cc1`
Result block: 20 to 50%

Query block: What do we get for `COc1ccc(-c2ccc3ncc(-c4cccc(Cl)c4)n3n2)cc1OC` ?
Result block: 20 to 50%

Query block: Try this compound next: `COc1cccc(CC(=O)Nc2cnc3cnc(-c4cccs4)cn23)c1`
Result block: 20 to 50%

Query block: # iterate: `Clc1ccc(-c2cnc3cnc(-c4cccs4)cn23)cc1`
Result block: 20 to 50%

Query block: Do the same for `Fc1cccc(-c2cnc3cnc(-c4ccc5c(c4)OCO5)cn23)c1` please
Result block: 20 to 50%

Query block: Another: `Cc1ccccc1-c1nnc2ccc(-c3ccc(C(N)=O)cc3)cn12`
Result block: 20 to 50%

Query block: Try this compound next: `COc1cc(OC)cc(-c2cnc3cnc(-c4cccc(OC(C)C)c4)cn23)c1`
Result block: 20 to 50%

Query block: Could you do the same for `Fc1cccc(-c2cn3c(-c4ccccc4)cnc3cn2)c1` , please?
Result block: 20 to 50%

Query block: Queued: `c1cc2cc(-c3ccc4nnc(-c5cscn5)n4c3)ccc2[nH]1`
Result block: 50 to 100%

Query block: Next compound up: `COc1cc(-c2cnc3cnc(-c4ccc(OCCCN(C)C)nc4)cn23)ccc1O`
Result block: 20 to 50%

Query block: Then `CN(C)CCCNC(=O)c1ccc(-c2ccc3nnc(-c4cccc(C(F)(F)F)c4)n3c2)cc1` ?
Result block: 20 to 50%

Query block: Next record, please: `CS(=O)(=O)Nc1cccc(-c2cn3c(-c4ccc(Oc5ccccc5)cc4)cnc3cn2)c1`
Result block: 20 to 50%

Query block: Moving on to `c1csc(-c2cn3c(-c4ccsc4)cnc3cn2)c1`
Result block: 50 to 100%

Query block: Now try `O=C(NCCO)c1cccc(-c2cn3c(-c4cccc(OC(F)(F)F)c4)cnc3cn2)c1` .
Result block: 20 to 50%

Query block: Param item: O=C(Nc1cnc2cnc(-c3ccc4ccccc4c3)cn12)C1CCOC1 (stereo not shown)
Result block: 10 to 20%

Query block: Same again, this time with `FC(F)(F)Oc1cccc(-c2nnc3ccc(C#Cc4ccccc4)cn23)c1`
Result block: 20 to 50%

Query block: Now the same for `COc1cc(-c2cnc3ccc(NCc4cccc(Cl)c4)nn23)ccc1O`
Result block: 20 to 50%

Query block: Moving on to `COc1ccc(-c2nnc3ccc(-c4cccc(F)c4)cn23)cc1OC`
Result block: ≥ 100%

Query block: And then `CC(C)Oc1cccc(-c2cn3c(-c4cccs4)cnc3cn2)c1` , what is it?
Result block: 20 to 50%

Query block: Again, but for `Cn1cc(-c2ccc3nnc(-c4ccc5c(c4)OCO5)n3c2)cn1`
Result block: 50 to 100%

Query block: Same question for `COc1ccccc1-c1cn2c(NC(=O)c3ccccc3)cnc2cn1` please.
Result block: 20 to 50%

Query block: What do you get for `CN(C)c1ccc(-c2cnc3cnc(-c4ccccc4Cl)cn23)cc1` ?
Result block: 20 to 50%

Query block: Ok, now `COc1cc(-c2ccc3ncc(-c4cccnc4)n3n2)cc(OC)c1OC`
Result block: 20 to 50%

Query block: Next up: `CN(C)c1ccc(-c2cnc3cnc(-c4ccc(NCCN5CCOCC5)nc4)cn23)cc1`
Result block: 50 to 100%

Query block: Another: `OCc1ccc(-c2cnc3cnc(-c4ccco4)cn23)cc1`
Result block: 20 to 50%

Query block: Here is the next compound: `CC(C)(C)c1ccc(-c2cnc3cnc(-c4ccc(N)nc4)cn23)cc1`
Result block: 10 to 20%

Query block: Also `CC(=O)Nc1ccc(-c2cnc3ccc(-c4ccc(S(C)(=O)=O)cc4)nn23)cc1` , if possible.
Result block: 10 to 20%

Query block: Repeat for the following compound: `c1cncc(-c2cnc3ccc(-c4ccoc4)nn23)c1`
Result block: 20 to 50%

Query block: Record: `COc1cc(OC)cc(-c2cn3c(-c4cccc(O)c4)cnc3cn2)c1`
Result block: 20 to 50%

Where these numbers come from: patent EP2818471A1
